System: SNB-75 CNS
Assay: NCI tumour cell line growth inhibition, 48 h
REPORTED_PROPERTY: TGI

>>> meas_value("O=c1oc2ccccc2cc1-c1cn2ccccc2n1")
"6.37 µM"
>>> meas_value("O=C(O)c1ccc(OCc2ccccc2)c(Cl)c1")
"> 100 µM"
>>> meas_value("[N-]=[N+]=Nc1cc(=O)n2c3c(cccc13)CCC2")
"> 100 µM"
>>> meas_value("Cc1cc(C)c2c(c1)C/C(=C\\c1ccccc1C(=O)O)C2=O")
"> 100 µM"
>>> meas_value("CC1C[C@]2(C)C(=NCCN)Nc3ccccc3[C@@H]2N(C)c2ccccc21 (stereo partly specified)")
"13.2 µM"
>>> meas_value("CCn1c(=O)c2c(=O)c3c4c(oc3oc2c2ccccc21)C(=O)c1ccccc1C4=O")
"> 53.3 µM"
>>> meas_value("CC(C)(C)OC(=O)NC(Cc1ccc(OC(C)(C)C)cc1)C(=O)N[C@H]1CCC[C@H]1C(=O)NC(Cc1ccccc1)C(=O)N1CCCC1C(N)=O (stereo partly specified)")
"> 100 µM"
>>> meas_value("CC(=O)N(CCc1ccccc1)C(C#N)c1ccccc1 (stereo unspecified)")
"> 100 µM"
>>> meas_value("COc1ccc2[nH]c3c(c2c1)CC(=S)N1CCCC(CC3=O)C1 (stereo unspecified)")
"> 100 µM"
>>> meas_value("CC1(C)CC(=O)C(C=NC(=O)c2ccncc2)=C(O)C1")
"> 100 µM"
>>> meas_value("CCC1CCc2c(c(=O)oc3c2cc(OC)c2cccc(OC)c23)C1 (stereo unspecified)")
"> 100 µM"

====

The following molecules are listed with their measured TGI values.
Test system: MOLT-4 leukemia
Assay: NCI tumour cell line growth inhibition, 48 h
REPORTED_PROPERTY: TGI (µM)

>>> meas_value("CCCCCOc1ccc(/C=N/Nc2cc(C)nc3ccc(Br)cc23)cc1")
3.58
>>> meas_value("O=C(CSC1CCc2ccccc21)N/N=C/c1ccccc1O (stereo not given)")
56.7

====

Test system: LXFL 529 NSCLC
Test: NCI tumour cell line growth inhibition, 48 h
REPORTED_PROPERTY: TGI

>>> meas_value("CC(=O)[O][Ga]([Br])[O]C(C)=O")
"> 100 µM"
>>> meas_value("COC1(OC)CC2C(=O)N(Cc3ccccc3)C1C=C2S(=O)(=O)c1ccccc1 (stereo not drawn)")
"34.2 µM"
>>> meas_value("CC(C)N(C(=O)C12C3C4C1(I)C1C2C3(I)C41C(=O)N(C(C)C)C(C)C)C(C)C (stereo not drawn)")
"> 100 µM"

====

System: UACC-62 melanoma
Experiment: NCI tumour cell line growth inhibition, 48 h
REPORTED_PROPERTY: TGI (µM)

>>> meas_value("O=C1NC(=O)C(c2c[nH]c3ccccc23)=C1c1cn(C(c2ccccc2)(c2ccccc2)c2ccccc2)cn1")
30.1
>>> meas_value("O=C1c2cccc3cccc(c23)C(=O)N1CCCNCCCNCCCCNCCCNCCCN1C(=O)c2cccc3cccc(c23)C1=O")
12.3
>>> meas_value("Cc1cc(C)c(/C=C2\\C(=O)Nc3ccc(NC(=O)CCCCCCC(=O)NO)cc32)[nH]1")
2.75
>>> meas_value("COc1ccc(-c2ccc(-c3ccc(C(=N)N)s3)s2)cc1")
0.357
>>> meas_value("COc1ccc(-c2csc(Cc3nc4ccccc4c(=O)n3-c3ccc(Cl)cc3)n2)cc1")
68.3
>>> meas_value("O=C(/N=C/c1c(O)c2ccccc2oc1=O)Oc1ccccc1")
79.7
>>> meas_value("O=C(Oc1cccnc1)c1cc2cc(CCl)ccc2oc1=O")
36.9
>>> meas_value("C[C@H]1[C@H](C)CC[C@]2(C(=O)Nc3ccc4ncccc4c3)CC[C@]3(C)C(=CC[C@@H]4[C@@]5(C)CCCNC(C)(C)[C@@H]5CC[C@]43C)[C@H]12")
3.23
>>> meas_value("CC(C)N(C(=O)C1(O)c2ccccc2C=Cc2ccccc21)C(C)C")
29.5
>>> meas_value("CN1C(=O)c2ccccc2OC12C=Cc1ccc(O)cc1O2 (stereo not given)")
91.6
